- Assayed target: T1, ZFP SBS#1070 (synthetic, UniProt P08047)
- T1 chain: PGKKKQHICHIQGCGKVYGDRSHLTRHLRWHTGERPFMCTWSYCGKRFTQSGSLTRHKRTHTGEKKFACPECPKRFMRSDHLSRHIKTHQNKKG
- Test protocol: EMSA
- Experimental setup: tags: MBP fusion
Readout label: Kd (nM)
Numbers only here, please. The scale is nM.

get_value(item= GGGGCAGGC (dsDNA) DNA 1: GGGGCAGGC DNA 2: GCCTGCCCC , readout=Kd) returns 0.456
